- target.entity: T1, hFc tagged human LAG3 ECD recombinant protein (human, UniProt P18627 23-450)
- T1 construct: range 23-450; also called biotin labelled hFc tagged human LAG3 ECD; not shown: human IgG Fc tag
- T1 sequence (looked up): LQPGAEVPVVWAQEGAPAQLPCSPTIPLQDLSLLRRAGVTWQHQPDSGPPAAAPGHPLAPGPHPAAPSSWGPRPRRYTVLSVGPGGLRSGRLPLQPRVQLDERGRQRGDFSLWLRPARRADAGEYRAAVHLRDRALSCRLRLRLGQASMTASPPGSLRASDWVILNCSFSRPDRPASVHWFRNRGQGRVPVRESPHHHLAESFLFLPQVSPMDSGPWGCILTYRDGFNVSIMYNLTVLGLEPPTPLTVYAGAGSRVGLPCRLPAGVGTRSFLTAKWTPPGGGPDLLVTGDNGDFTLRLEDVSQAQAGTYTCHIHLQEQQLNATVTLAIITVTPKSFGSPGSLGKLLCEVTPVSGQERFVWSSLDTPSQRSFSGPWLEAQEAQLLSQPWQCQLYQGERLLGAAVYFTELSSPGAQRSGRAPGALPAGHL
- run.description: competitive ELISA: excess competitor, biotin hFc-LAG3 ECD, coated BMS-986016
measurement.type: % competition (%)
I only need the number, in %, no unit after it.

Example entries begin here.
binder	% competition / %
Antibody 023 (antibody, V domains shown, mouse hybridoma antibody) VH: QIQLVQSGPVLKKPGETVKISCKASGYTFTESPMNWVKQAPGRGFKWMGMIYTDTGEPTYAEEFKGRFAFSLETSASTAYLQINNLKSEDTATYFCVSDYGSILYWYFDVWGTGTTVTVSS VL: DIVMTQSHKFMSTSVGDRVSITCKASQDVSTAVAWYQQTPGQSPKLLIYSASYRYTGVPDRFTGSGSGTDFTFTISSVQAEDLAVYYCQQHYNSPPTFGAGTKLELK	43.7
Antibody 047 (antibody, V domains shown, mouse hybridoma antibody) VH: QVQLQQSGAELARPGASVKLSCKASGYSFTSYGVNWVKQRTGQGLEWIGEIYPRSGNTYYNERFGDKATLTADKSSSTAYMEIRSLTSEDSAVYFCARGGTYDGYYYAMDYWGQGTSVTVSS VL: DIVLTQSPASLAVSLGQRATISCRASESVDNFGSSFMHWYQQKPGQAPKLLIYRASNLESGIPARFSGSGSRTDFTLTINPVETDDVATYYCQQVNKDPRTFGGGTKLEIK	8.9
Antibody 048 (antibody, V domains shown, mouse hybridoma antibody) VH: EFQVQQSGPELVKPGASVKISCKASGYSFSDYNMNWLKQSTGKSLEWIGLVDPIYGTIRYNQKFKGKATLTVDQSSSTAYMQLNSLTSEDSAVYYCALITTSVRYFDYWGQGTTLTVSS VL: DVLMTQTPLSLPVSLGDQASISCRSSQNIVHTDGNTYLEWYLQKPGQSPKLLIYKVSNRFSGVPDRFSGSGSGTDFTLKISRVEAEDLGVYYCFQGSHVPPTFGGGTKLEIK	41.7
Antibody 021 (antibody, V domains shown, mouse hybridoma antibody) VH: DIQLQESGPGLVKPSQSLSLTCSVTGYSITSGYYWNWIRQFPGNKLEWMGDISYDGGNNYNPSLKNRISITRDTSKNQFFLKLNSVTTEDTATYYCARDITLTGAMDYWGQGTSVTVSS VL: DIVLTQSPASLAVSLGQRATISCRASESVDNYGISFMHWYQQRPGQPPKLLIYRASNLESGIPARFSGSGSRTDFTLTINPVETDDVATYYCQQSNKDPYTFGGGTKLEIK	6.9
Antibody 057 (antibody, V domains shown, mouse hybridoma antibody) VH: QVQLQQSGAELARPGASVKLSCKASGFSFTSYGINWVKQRTGQGLEWIGEIYPRSGNTYYNEKLKGEATLTADRSSSTAYMELRSLTSEDSAVYFCARGGTYDGYYYAMDYWGQGTSVTVSS VL: NIVLTQSPASLAVSLGQRATISCRASESVDNFGSSFMHWYQQKPGQAPKLLIYRASNLESGIPARFGGSGSGTDFTLTIDPVETDDVATYYCQQVNKDPRTFGGGTKLEIK	29.3

Param item = Antibody 039 (antibody, V domains shown, mouse hybridoma antibody) VH: EFQLQQSGPELVKPGASVKISCKASGYSFTDYNLNWVRQSNGKSLEWIGLVDPIYGTIRYNQNFKDKATLTVDQSSSTAYMQLNSLTSEDSAVYYCASIMTAVRYFDHWGQGTTLTVSS VL: DVLMTQTPLFLPVSLGDQASISCRSSLNIVHSDGNTYLEWYLQKPGQSPKLLIYKVSNRFSGVPDRFSGSGSGTDFTLKISGVEAEDLGVYYCFQGSHVPPTFGGGTKLEIK ; retrieve measured % competition. 19.3
